This section presents variants with their documented self-cleavage values.
B1: CPEB3 Ribozyme (parent)
chain: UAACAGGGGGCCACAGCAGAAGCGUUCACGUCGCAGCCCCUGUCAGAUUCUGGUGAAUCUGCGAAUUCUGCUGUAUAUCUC

Variants of: B1
Assay: self-cleavage, relative activity (ratio to wild type); higher = more cleavage; in vitro, sequencing

Below: 2 variants and their reported self-cleavage.
chainSequence	self-cleavage
UAACAGGGGGCCACAGCAGAAGCGUUCACAUCGCAACCCCUGUCAGAUUCUGGUGAAUCUGCGAAUUCUGCUGUAUAUCUC [G30A G36A]	0.4
AAACAGGGGGCCACAGCAGAAGCGUUCACGUCGCAGCCCCUGUCAGAUUCUGGUGAAUCUGCGAACUCUGCUGUAUAUCUC [U1A U66C]	0.4

Let us move to another entry and its self-cleavage.
Determine from records and report self-cleavage for UAACAGGGGGCCACAGCAGAAGCGUUCACGUCGCAGCCCCUGUCAGAUUCUGGUGAAGCUGCGAAUUCUGCUGUAUAACUC [U58G U78A] 0.4
